Quick reference: mass density of the listed items.
- Recorded Conditions: 298.15 K; 101.33 kPa; Liquid

# Chemical String, Unit Of Measurement, mass density
records = [
    ("Cc1ccccc1", "kg/m3", 862.27),
    ("COc1ccccc1", "kg/m3", 989.13),
    ("CC(=O)c1ccccc1", "kg/m3", 1023),
    ("Clc1ccccc1", "kg/m3", 1100.9),
]
